# Test system: PPARg DBDmut:RXRa IVT, anti-PPARg (DBD mutation: PPARg1 K132A/R137A, NR concentration 270 nM, RXRa partner concentration 90 nM)
# test-protocol: PBM binding z-score (relative to random genomic background probes); higher = stronger binding; sequences stand for … in GC…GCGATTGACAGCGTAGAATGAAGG
Please respond with reported PBM binding z-score for every item in the list.
One number for each entry.

[
  {
    "residue-codes": "ACAGACAGGTGATGAAGGTAACACAGGCTATCAT",
    "observable": "PBM binding z-score",
    "measured-value": 0.824
  },
  {
    "residue-codes": "CCTTACGGGTCACTCCAAGTTATAGCATCGGAGT",
    "observable": "PBM binding z-score",
    "measured-value": 0.816
  },
  {
    "residue-codes": "CCTAGCAGGCCAATCTGGCTCACTCAAGGCTTGA",
    "observable": "PBM binding z-score",
    "measured-value": -2.07
  }
]

Here are 4 sequences. What values of PBM binding z-score were reported for them?
1. TCTTGTACATCAATAGAGGTTAAGAAAGTGCGCT
2. CGTCCAAAGTCATAGGAGGTCAGTGAAGACAGAT
3. CGCCCAAGGTCAAGGTCAGTGAAAGAGACTCGAA
4. ACAGACAGGTGATGAAGGAAACTCAGGCTATCAT

[reply]
1.53
0.0341
0.61
0.678

Here are 4 sequences. What values of PBM binding z-score were reported for them?
1. TTATATAGGTAATACAGGTGAAAGTCGGCATCTA
2. CGTCCAAGGTCAGCAGTTCAGTGAAAGCGACGTG
3. CGAACTAGGTCATTGACCGGACAGTGAATAGTAA
4. AGTCGAAGTTCATCTAGGTAACGTAAGATATGCT

[reply]
[1.64, 0.0799, 0.655, 0.625]

[ask] Give me measured PBM binding z-score, please, for this sequence: "ACTAGCAGGCCAAGTTTGTGTCACTCAAACAAAG"
[reply] -0.284

----------
Please respond with reported PBM binding z-score for every item in the list.
# Tested on: RARa homodimer (NR concentration 270 nM)
# test-protocol: PBM binding z-score (relative to random genomic background probes); higher = stronger binding; sequences stand for … in GC…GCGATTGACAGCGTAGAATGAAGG
Answers are plain numbers.

Here are 6 sequences. What values of PBM binding z-score were reported for them?
1. GCAGACAGGTGAAACGCAGGTAACTAAGGGTGGC
2. CCTGCTAGCTCAATGGTCAGCTAAAGCAGCTCGC
3. AGAATGAGGTTAAGATCAGGGCAACAGAATACAT
4. TCTTGTAGATCAAGCAGGTTAAGTAAGCCTGAGT
5. CCTGCTAGGTCAATGCTCAGCTAAAGCAGCTCGC
6. ATCTCTAGGTAACGATAGTTCAGTGAATGCAAAT

[reply]
1. -0.657
2. -0.89
3. 0.44
4. -0.203
5. -0.48
6. 0.352

----------
# Test system: RARb homodimer (NR concentration 270 nM)
# test-protocol: PBM binding z-score (relative to random genomic background probes); higher = stronger binding; sequences stand for … in GC…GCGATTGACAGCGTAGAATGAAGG
// thresholds for PBM binding z-score classes: label 0 = under 1, label 1 = from 1 up to 4, label 2 = 4 and over

Some solved cases for reference:
[
  {
    "residue-codes": "TCGAGTAGGTTACCAATGGGGCCTTCAGCTTTCT",
    "class-label": "label 0"
  },
  {
    "residue-codes": "GCTATTAGTTGAAAGGTCAACCGAATGATTCTCG",
    "class-label": "label 2"
  },
  {
    "residue-codes": "ACAGACAGCTGAGTGAAGGTAACTCAGCTGGACG",
    "class-label": "label 0"
  },
  {
    "residue-codes": "TGAATGAGGTTGAAGATCAGGGAACGTGGCGTCG",
    "class-label": "label 0"
  }
]

[ask] Which class is correct for the following sequence? "GCATATAGGTAATACAAGGTTAAAGTCCGATTGT"
[reply] label 1

[ask] Which class is correct for the following sequence? "CTAACTAGGTCAAGAGGTCAAAGTCCGCTTCCCG"
[reply] label 2

[ask] Which class is correct for the following sequence? "GGAACGAGGGCAAGTAGATAGCAGAGTTTGATGG"
[reply] label 1
